# Test protocol: Oral LD50 in chickens
# Assay conditions: chicken, in vivo, oral administration
Result type: LD50

Molecule | Measured
CC[C@@H](C(=O)[C@@H](C)[C@@H](O)[C@H](C)[C@@H]1O[C@@H]([C@@H](CC)C(=O)O)CC[C@@H]1C)[C@H]1O[C@]2(C=C[C@@H](O)[C@]3(CC[C@@](C)([C@H]4CC[C@](O)(CC)[C@H](C)O4)O3)O2)[C@H](C)C[C@@H]1C [Salinomycin, salinomycin] | 125 mg/kg

---

# Tested on: erythrocytes of whole fresh human blood
# Test protocol: RBC K+ leak: release of erythrocyte potassium into plasma fraction in vitro
# Assay type: cell-based
# Assay conditions: reciprocal of concentration which leaked 15 mM K+/hr from erythrocytes, relative to lasalocid
Mark 0 for RBC K+ Leak Potency (column 4) values under 10, and 1 for everything at or above.

Compound | Label
CC[C@@H]1O[C@@H]([C@]2(C)C[C@@H](C)[C@](O)([C@]3(C)CC[C@@H]([C@@H](O)[C@]4(O)O[C@H](C[C@@]5(O)O[C@@H]([C@@H](C)[C@H](O)C[C@H]6CC[C@H](C)[C@@H]([C@@H](C)C(=O)O)O6)CC[C@@H]5C)[C@@H](C)C[C@H]4C)O3)O2)CC[C@@]1(C)O | 1
COC1CCC(OC2C(C)C(O)(C(C)C(=O)O)OC(CC3CC(OC)C(C)C4(O3)OC(C)(C3CCC(C5CCC(C6OC(C)(O)C(C)C(OC)C6C)O5)O3)C(OC)C4C)C2(C)OC)OC1C (stereo not drawn) | 1
COC1CC(CC2CCC(C)C(C(C)C(=O)O)O2)OC2(OC(C)(C3CCC(C)(C4OC(C5OC(O)(CO)C(C)CC5C)CC4C)O3)CC2C)C1C (stereo not drawn) | 1
CO[C@H]1CC[C@@H](O[C@H]2C[C@H]([C@]3(C)CC[C@]4(C[C@H](O)[C@@H](C)[C@@H]([C@@H](C)/C=C(\C)C(=O)[C@H](C)C[C@H](C)C(=O)O)O4)O3)O[C@]3(O[C@@H]([C@H]4O[C@@](O)(CO)[C@H](C)C[C@@H]4C)C[C@@H]3C)[C@@H]2C)O[C@@H]1C | 1
CC[C@@]1([C@@H]2O[C@@H]([C@H]3O[C@@](O)(CO)[C@H](C)C[C@@H]3C)C[C@@H]2C)CC[C@H]([C@]2(C)CC[C@]3(C[C@H](O)[C@@H](C)[C@@H]([C@@H](C)[C@@H](OC)[C@H](C)C(=O)O)O3)O2)O1 | 0

---

# Test protocol: Oral LD50 in dogs
# Assay conditions: dog, in vivo, oral administration
Result type: LD50 (mg/kg)

Smi | Measured
CC[C@@H](C(=O)[C@@H](C)[C@@H](O)[C@H](C)[C@@H]1O[C@@H]([C@@H](CC)C(=O)O)CC[C@@H]1C)[C@H]1O[C@]2(C=C[C@@H](O)[C@]3(CC[C@@](C)([C@H]4CC[C@](O)(CC)[C@H](C)O4)O3)O2)[C@H](C)C[C@@H]1C | 10
